Each item that follows carries a reported solubility at 24 h.
Assay: Solubility of the compound in JP2 solution at pH 6.8 after 24 hrs at 25 degC by HPLC
Format: physicochemical

substance-smiles	solubility at 24 h
CCNC1CN(c2c(F)cc3c(=O)c(C(=O)O)cn(-c4nc(N)c(F)cc4F)c3c2C)C1	45 µg/mL
Cc1c(N2CC(NC(C)C)C2)c(F)cc2c(=O)c(C(=O)O)cn(-c3nc(N)c(F)cc3F)c12	41 µg/mL
Cc1c(N2CC(N)C2)c(F)cc2c(=O)c(C(=O)O)cn(-c3nc(N)c(F)cc3F)c12	27 µg/mL
CNC1CN(c2c(F)cc3c(=O)c(C(=O)O)cn(-c4nc(N)c(F)cc4F)c3c2C)C1	3.1 µg/mL
CCCNC1CN(c2c(F)cc3c(=O)c(C(=O)O)cn(-c4nc(N)c(F)cc4F)c3c2C)C1	41 µg/mL

---

Experiment: Passive permeability of the compound after 5 hrs at 25 degC by PAMPA assay
Assay type: physicochemical
Details: read-out: Peff
Each item that follows carries a reported Papp at 5 h.
recorded-metric: Papp at 5 h (×10⁻⁶ cm/s)

substance-smiles	value-units	observed-value
Cc1c(N2CC(NC(C)C)C2)c(F)cc2c(=O)c(C(=O)O)cn(-c3nc(N)c(F)cc3F)c12	×10⁻⁶ cm/s	1.2
Cc1c(N2CC(N)C2)c(F)cc2c(=O)c(C(=O)O)cn(-c3nc(N)c(F)cc3F)c12	×10⁻⁶ cm/s	0.12
CNC1CN(c2c(F)cc3c(=O)c(C(=O)O)cn(-c4nc(N)c(F)cc4F)c3c2C)C1	×10⁻⁶ cm/s	0.19
CCCNC1CN(c2c(F)cc3c(=O)c(C(=O)O)cn(-c4nc(N)c(F)cc4F)c3c2C)C1	×10⁻⁶ cm/s	1.1
CCNC1CN(c2c(F)cc3c(=O)c(C(=O)O)cn(-c4nc(N)c(F)cc4F)c3c2C)C1	×10⁻⁶ cm/s	0.29

---

Assay: Drug excretion in Sprague-Dawley rat assessed as unmetabolized form at 5 mg/kg, iv after 24 hrs by HPLC
Type: ADME, organism-based
Conditions: in vivo, read-out: Drug excretion

substance-smiles	dose excreted at 24 h (%)
CNC1CN(c2c(F)cc3c(=O)c(C(=O)O)cn(-c4nc(N)c(F)cc4F)c3c2C)C1	90
CCNC1CN(c2c(F)cc3c(=O)c(C(=O)O)cn(-c4nc(N)c(F)cc4F)c3c2C)C1	91
Cc1c(N2CC(N)C2)c(F)cc2c(=O)c(C(=O)O)cn(-c3nc(N)c(F)cc3F)c12	85

---

System: Serratia marcescens
Assay: Antibacterial activity against Serratia marcescens T-55 assessed as growth inhibition at 128 to 0.002 mg/L incubated for 18 hrs at 37 degC by agar dilution method
Assay type: functional
Settings: T-55, 18 h

substance-smiles	study-system	MIC / µg/mL
Cc1c(N2CC(NC(C)(C)C)C2)c(F)cc2c(=O)c(C(=O)O)cn(-c3nc(N)c(F)cc3F)c12	Serratia marcescens	0.57
CCCNC1CN(c2c(F)cc3c(=O)c(C(=O)O)cn(-c4nc(N)c(F)cc4F)c3c2C)C1	Serratia marcescens	0.21
Cc1c(N2CC(N)C2)c(F)cc2c(=O)c(C(=O)O)cn(-c3nc(N)c(F)cc3F)c12	Serratia marcescens	0.061
C[C@H]1COc2c(N3CCN(C)CC3)c(F)cc3c(=O)c(C(=O)O)cn1c23.C[C@H]1COc2c(N3CCN(C)CC3)c(F)cc3c(=O)c(C(=O)O)cn1c23.O	Serratia marcescens	0.12
